I'd appreciate it if you could supply self-cleavage values for the items below.
B1: HDV Ribozyme (parent)
chain: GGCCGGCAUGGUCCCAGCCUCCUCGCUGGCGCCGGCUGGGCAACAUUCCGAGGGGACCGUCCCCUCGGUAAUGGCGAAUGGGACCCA

Variants of: B1
Test: self-cleavage, relative activity (ratio to wild type); higher = more cleavage; co-transcriptional
// return a plain number; no unit text

Form: variant = G2U G25C ; self-cleavage = 0.0244

Form: variant = C64A G82U ; self-cleavage = 0.409

Form: variant = C7U U20A ; self-cleavage = 0.0594

Form: variant = U79A A83G ; self-cleavage = 0.375

Form: variant = G1C G59U ; self-cleavage = 0.0437

Form: variant = G38U U69C ; self-cleavage = 0.192

Form: variant = G1C U9C ; self-cleavage = 0

Form: variant = U9G C21G ; self-cleavage = 0

Form: variant = G34A C36U ; self-cleavage = 0.0623

Form: variant = C19A C24G ; self-cleavage = 0.158

Form: variant = U46C U60A ; self-cleavage = 0.674
